Molecular target: T1, SBV Gc head domain (SBV-Gc_(head)) (Bovine Schmallenberg virus (isolate …))
T1 construct: not shown: Twin Strep-tag, C-terminal, kept
T1 chain: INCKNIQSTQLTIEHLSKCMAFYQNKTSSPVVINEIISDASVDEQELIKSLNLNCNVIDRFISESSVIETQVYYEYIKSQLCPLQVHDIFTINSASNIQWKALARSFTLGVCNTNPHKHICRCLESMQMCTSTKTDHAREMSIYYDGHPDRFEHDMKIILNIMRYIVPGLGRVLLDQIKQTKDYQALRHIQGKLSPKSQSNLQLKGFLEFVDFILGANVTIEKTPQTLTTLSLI
Assay: ELISA; competition ELISA: antigen on Strep-Tactin microplates; competing VHH at 11.11 µg/ml, 1 hr RT, then HRP-conjugated analyte VHH, 1 hr RT; competition as percentage of blocking, above 50% counted as efficient
Conditions: both partners purified

binder | binding result
SB9 (VHH, source: S. cerevisiae, purified from the culture supernatant (IMAC, Ni-NTA)) VHH: QVQLQESGGGLVQPGGSLRLSCAASGFTFGSYDMSWVRQAPGKGPEWVSGINSGAISTYYADSVKGRFTISRDNAKNTLYLQMNSLKPEDTAVYYCAKADLDKMMEMVAGRPFLPHDPNFGSWGQGTQVTVSS | binds
SB13 (VHH, source: S. cerevisiae, purified from the culture supernatant (IMAC, Ni-NTA)) VHH: QVQLQESGGGLVQAGDSLRLSCAVSGRTVSSNVMAWFRQAPGKEREAVAFIDSGSGGWPYYSDSVKGRFTISRDNAKNMVYLQMDSLIPEDTAVYYCAADSAVYSRSSRWWLRASSYSYWGQGTQVTVSS | binds

Reference source for all entries: paper PMC7173960
